# System under test: PAK1 (human)
# Assay: KINOMEscan competition binding
# Test settings: compound 10.0 µM
Parameter: kinase still bound, per cent of control. Scope: all listed entries.
Lab book: enter the figure in %, no units written.

Recorded kinase still bound, per cent of control, per entry:
Cc1n[nH]c2ccc(-c3cncc(OC[C@@H](N)Cc4c[nH]c5ccccc45)c3)cc12 : 6.2
COc1cc2ncnc(-n3nc(-c4ccccn4)nc3N)c2cc1OC : 70

Then this compound:
GET /values?readout=kinase still bound, per cent of control&system=PAK1 (human)&item= CNC(=O)c1ccc(Nc2cc(Nc3ccccc3S(=O)(=O)C(C)C)c3cc[nH]c3n2)nc1
100

---

Parameter: kinase still bound, per cent of control. Scope: all listed entries.
# System under test: FLT1 (human) (UniProt P17948)
# Sequence (P17948 whole entry, looked up): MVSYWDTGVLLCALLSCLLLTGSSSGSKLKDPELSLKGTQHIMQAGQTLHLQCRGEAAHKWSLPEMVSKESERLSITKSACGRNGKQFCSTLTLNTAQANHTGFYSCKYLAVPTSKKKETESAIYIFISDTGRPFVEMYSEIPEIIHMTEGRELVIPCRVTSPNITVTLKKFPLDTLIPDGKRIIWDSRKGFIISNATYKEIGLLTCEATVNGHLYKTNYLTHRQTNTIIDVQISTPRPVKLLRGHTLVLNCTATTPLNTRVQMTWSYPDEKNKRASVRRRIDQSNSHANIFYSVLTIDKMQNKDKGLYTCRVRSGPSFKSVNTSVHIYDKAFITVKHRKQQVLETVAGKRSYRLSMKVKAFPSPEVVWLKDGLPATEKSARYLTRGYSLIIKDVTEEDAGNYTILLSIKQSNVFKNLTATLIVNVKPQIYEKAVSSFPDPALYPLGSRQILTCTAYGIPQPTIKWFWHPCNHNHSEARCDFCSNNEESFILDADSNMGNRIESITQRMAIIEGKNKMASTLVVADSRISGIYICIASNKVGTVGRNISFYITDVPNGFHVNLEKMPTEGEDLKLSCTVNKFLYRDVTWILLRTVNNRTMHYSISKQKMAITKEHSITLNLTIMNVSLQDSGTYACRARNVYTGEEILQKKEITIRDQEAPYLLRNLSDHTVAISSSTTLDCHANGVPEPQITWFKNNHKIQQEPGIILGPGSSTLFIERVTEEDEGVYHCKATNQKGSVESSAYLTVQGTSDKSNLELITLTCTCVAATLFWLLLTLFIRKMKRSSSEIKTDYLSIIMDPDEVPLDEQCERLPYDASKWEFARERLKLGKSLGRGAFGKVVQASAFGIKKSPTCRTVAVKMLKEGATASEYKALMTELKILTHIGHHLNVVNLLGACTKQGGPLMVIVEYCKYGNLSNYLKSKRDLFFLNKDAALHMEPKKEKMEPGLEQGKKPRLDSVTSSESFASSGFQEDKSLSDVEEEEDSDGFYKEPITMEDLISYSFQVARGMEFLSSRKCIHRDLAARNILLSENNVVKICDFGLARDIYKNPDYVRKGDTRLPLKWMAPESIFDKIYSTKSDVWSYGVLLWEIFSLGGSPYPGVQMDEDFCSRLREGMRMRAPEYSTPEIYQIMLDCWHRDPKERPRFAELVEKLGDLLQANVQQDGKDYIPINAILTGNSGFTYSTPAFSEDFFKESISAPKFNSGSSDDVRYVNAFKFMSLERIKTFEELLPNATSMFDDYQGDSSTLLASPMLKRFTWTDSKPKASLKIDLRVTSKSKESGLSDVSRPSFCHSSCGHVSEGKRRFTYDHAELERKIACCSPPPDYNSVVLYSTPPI
# Assay: KINOMEscan competition binding
# Test settings: compound 10.0 µM
Lab book: enter the figure in %, no units written.

Recorded kinase still bound, per cent of control, per entry:
CS(=O)(=O)N1CCN(Cc2cc3nc(-c4cccc5[nH]ncc45)nc(N4CCOCC4)c3s2)CC1 : 100
COc1cc2ncnc(-n3nc(-c4ccccn4)nc3N)c2cc1OC : 48
COc1ccc(N(C(=O)Oc2c(C)cccc2C)c2ccnc(Nc3ccc(N4CCN(C)CC4)cc3)n2)c(OC)c1 : 11
N#CCNC(=O)c1ccc(-c2ccnc(Nc3ccc(N4CCOCC4)cc3)n2)cc1 : 55

Value lookup for kinase still bound, per cent of control; key = C=CC(=O)Nc1cc(-n2c(=O)ccc3cnc4ccc(-c5cn[nH]c5)cc4c32)ccc1C
100

---

# System under test: UniProtKB P22607
# Sequence (P22607 whole entry, looked up): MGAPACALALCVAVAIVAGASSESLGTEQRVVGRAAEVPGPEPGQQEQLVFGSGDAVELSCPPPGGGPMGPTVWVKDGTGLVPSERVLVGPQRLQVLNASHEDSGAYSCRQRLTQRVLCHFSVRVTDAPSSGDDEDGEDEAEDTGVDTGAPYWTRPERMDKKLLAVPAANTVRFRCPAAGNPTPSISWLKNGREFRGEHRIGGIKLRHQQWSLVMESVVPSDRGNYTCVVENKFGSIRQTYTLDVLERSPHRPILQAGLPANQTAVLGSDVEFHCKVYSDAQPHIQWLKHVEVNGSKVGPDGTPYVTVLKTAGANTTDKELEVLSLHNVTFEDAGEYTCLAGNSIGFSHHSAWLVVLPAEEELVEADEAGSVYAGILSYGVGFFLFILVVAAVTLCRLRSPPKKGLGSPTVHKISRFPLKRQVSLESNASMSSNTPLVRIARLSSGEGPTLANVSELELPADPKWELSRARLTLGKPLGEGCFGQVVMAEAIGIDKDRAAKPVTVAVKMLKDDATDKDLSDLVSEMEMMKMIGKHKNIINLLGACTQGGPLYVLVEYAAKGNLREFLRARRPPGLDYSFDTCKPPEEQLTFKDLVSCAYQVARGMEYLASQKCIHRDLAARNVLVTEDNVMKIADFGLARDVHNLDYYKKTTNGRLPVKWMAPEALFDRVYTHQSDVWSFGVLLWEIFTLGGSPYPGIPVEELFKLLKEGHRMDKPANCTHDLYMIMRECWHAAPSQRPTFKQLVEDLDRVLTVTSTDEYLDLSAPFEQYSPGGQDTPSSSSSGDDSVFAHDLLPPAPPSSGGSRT
# Assay: KINOMEscan competition binding
# Test settings: compound 10.0 µM
Endpoint: kinase still bound, per cent of control (%)
Lab book: enter the figure in %, no units written.

Recorded kinase still bound, per cent of control, per entry:
CNC(=O)c1cc(Oc2ccc(NC(=O)Nc3ccc(Cl)c(C(F)(F)F)c3)cc2)ccn1 : 31
COc1cc2ncnc(-n3nc(-c4ccccn4)nc3N)c2cc1OC : 84
COc1ccc(N(C(=O)Oc2c(C)cccc2C)c2ccnc(Nc3ccc(N4CCN(C)CC4)cc3)n2)c(OC)c1 : 1
CN(C)C/C=C/C(=O)Nc1ccc(C(=O)Nc2cccc(Nc3nccc(-c4cccnc4)n3)c2)cc1 : 96
COc1cc2ncn(-c3cc(OCc4ccccc4C(F)(F)F)c(C(N)=O)s3)c2cc1OC : 20
C[C@@H](Oc1cc(-c2cnn(C3CCNCC3)c2)cnc1N)c1c(Cl)ccc(F)c1Cl : 22
CCN(CC)CCCCNc1ncc2c(n1)N(C)C(=O)N(c1c(Cl)c(OC)cc(OC)c1Cl)C2 : 3.3
C=CC(=O)Nc1cc(-n2c(=O)ccc3cnc4ccc(-c5cn[nH]c5)cc4c32)ccc1C : 89

Value lookup for kinase still bound, per cent of control; key = COc1cc(C(=O)N2CCC(N3CCN(C)CC3)CC2)ccc1Nc1ncc2c(n1)N(C)c1ccccc1C(=O)N2C
80

---

Parameter: kinase still bound, per cent of control. Scope: all listed entries.
# System under test: UniProt P06241
# Sequence (P06241 whole entry, looked up): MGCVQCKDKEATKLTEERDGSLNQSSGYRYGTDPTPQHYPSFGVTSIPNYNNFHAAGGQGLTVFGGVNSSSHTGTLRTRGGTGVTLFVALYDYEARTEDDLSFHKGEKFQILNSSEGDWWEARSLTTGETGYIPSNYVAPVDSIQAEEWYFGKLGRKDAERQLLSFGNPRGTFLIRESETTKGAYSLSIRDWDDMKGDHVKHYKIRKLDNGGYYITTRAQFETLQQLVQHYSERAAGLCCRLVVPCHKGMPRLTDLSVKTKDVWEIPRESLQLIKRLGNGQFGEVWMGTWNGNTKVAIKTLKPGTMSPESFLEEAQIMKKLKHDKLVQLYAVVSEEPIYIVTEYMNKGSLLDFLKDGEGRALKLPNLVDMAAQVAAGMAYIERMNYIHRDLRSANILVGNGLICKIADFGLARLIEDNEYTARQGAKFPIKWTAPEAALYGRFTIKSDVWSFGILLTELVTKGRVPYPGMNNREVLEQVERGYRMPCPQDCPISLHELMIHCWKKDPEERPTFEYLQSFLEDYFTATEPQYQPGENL
# Assay: KINOMEscan competition binding
# Test settings: compound 10.0 µM

O=c1cc(N2CCOCC2)oc2c(-c3cccc4c3sc3ccccc34)cccc12 : 100%
O=C(Nc1cccc(Nc2ncc(Br)c(NCCc3cnc[nH]3)n2)c1)N1CCCC1 : 8.2%
CNC(=O)c1ccc(Nc2cc(Nc3ccccc3S(=O)(=O)C(C)C)c3cc[nH]c3n2)nc1 : 8.1%
COc1cc(C(=O)N2CCC(N3CCN(C)CC3)CC2)ccc1Nc1ncc2c(n1)N(C)c1ccccc1C(=O)N2C : 100%
C[C@@H](Oc1cc(-c2cnn(C3CCNCC3)c2)cnc1N)c1c(Cl)ccc(F)c1Cl : 10%

Value lookup for kinase still bound, per cent of control; key = COCC(=O)NC/C=C/c1ccc2ncnc(Nc3ccc(Oc4ccc(C)nc4)c(C)c3)c2c1
100%

Same lookup for CCN(CC)CCCCNc1ncc2cc(-c3cc(OC)cc(OC)c3)c(NC(=O)NC(C)(C)C)nc2n1 , please.
100%

Same lookup for CCN(CC)CCCCNc1ncc2c(n1)N(C)C(=O)N(c1c(Cl)c(OC)cc(OC)c1Cl)C2 , please.
100%

Same lookup for COc1ccc(N(C(=O)Oc2c(C)cccc2C)c2ccnc(Nc3ccc(N4CCN(C)CC4)cc3)n2)c(OC)c1 , please.
0%
